Recorded values, source PubChem BioAssay AID1850.

Overview of recorded inhibition for various compounds
Experiment: PhoP regulon inhibitors, Salmonella typhi PhoP promoter GFP reporter, confirmatory (AID 1850);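 note: 0% = induced wells with vehicle and 100% = uninduced wells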
Conditions: fluorescence, 4 h, at 50 µM, active compounds read high
Among all 310,000 compounds or so, about 1,000 (0.32%) were called active. Only a sample is shown. Entries with a potency or affinity are not part of this list.
Readout Name: inhibition

# Compound, Result
rows = [
    ("COCCCn1c(=O)c2ccccc2n(Cc2cc(C(=O)OC)ccc2OC)c1=O", "5.08% (inactive)"),
    ("O=C(O)c1cn(-c2ccc(N3CCCC3)c(F)c2)c2c(F)c(F)c(F)cc2c1=O", "-7.01% (inactive)"),
    ("O=C(NCc1ccc(Cl)cc1)N1CCc2ccccc2C1", "2.15% (inactive)"),
    ("CC(C(=O)c1ccc(-c2ccccc2)cc1)[n+]1cccc(C(N)=O)c1 (configuration not stated)", "5.49% (inactive)"),
    ("COCCNC(=O)C1CC(c2ccc(F)cc2)=NO1 (configuration not stated)", "-13.4% (inactive)"),
    ("Cc1ccc(C(=O)CSc2nnc(C(C)C)n2C)cc1C", "-9.07% (inactive)"),
    ("Cc1cccc(N2CCN(C(=O)c3csc4ccccc34)CC2C)c1 (configuration not stated)", "-6.46% (inactive)"),
    ("CSc1ccc(CN2CCc3c([nH]c4ccccc34)C2)cc1", "2.22% (inactive)"),
    ("COc1ccc(-c2c(C)nn3c(N4CCC5(CC4)OCCO5)cc(C)nc23)cc1OC", "-5.4% (inactive)"),
    ("O=C(NCc1ccco1)/C(=C\\c1ccco1)NC(=O)c1ccco1", "-9.29% (inactive)"),
    ("Cc1ccccc1N1CC(C(=O)NC2CCCC2)CC1=O (configuration not stated)", "-18.4% (inactive)"),
    ("O=C(NCC1CCCO1)c1cccc(Oc2ccccc2)c1 (configuration not stated)", "-8.15% (inactive)"),
    ("OC(C#CCN1CCCCC1)c1ccccc1 (configuration not stated)", "-17.1% (inactive)"),
    ("Cc1ccccc1-n1ccnc1SCC(=O)NCc1ccco1", "1.18% (inactive)"),
    ("O=C(Nc1cccnc1)C1CCC(CNS(=O)(=O)c2cccc3nsnc23)CC1 (configuration not stated)", "8.22% (inactive)"),
    ("Clc1cccc(CN2CCc3c([nH]c4ccccc34)C2)c1", "1.94% (inactive)"),
    ("CC(C)N(CCNCC(O)COc1ccc(C(C)(C)c2ccccc2)cc1)C(C)C (configuration not stated)", "-17.3% (inactive)"),
]
